Each entry below carries its recorded IC50.
- Tested target: SARS-CoV-2 PLpro (Severe acute respiratory syndrome coronavirus 2 (2019-nCoV) (SARS-CoV-2))
- Assay notes: PLpro enzymatic inhibition assay (IC50 value determination)
- Type: biochemical
- Condition parameters: 60 min preincubation for covalent inhibitors, 10 min for non-covalent, read-out: Inhibition of SARS-CoV-2 PLpro IC50 range

As a guide, the following entries are already answered.
• COC(=O)/C=C/CNC(=O)CNC(=O)CN(C(=O)C1CCC1)C1CCN([C@H](C)c2cccc3ccccc23)CC1 = 100 to 1000 nM
• C#CCNC(=O)CNC(=O)CN(C1CCN(C(C)c2cccc3ccc(Cl)cc23)CC1)S(C)(=O)=O (stereo not shown) = < 100 nM
• C#CC(C)(C)CNC(=O)CNC(=O)CN(C1CCN(C(C)c2cccc3ccccc23)CC1)S(C)(=O)=O (stereo not shown) = 1000 to 10000 nM

We now examine a further compound.
Ask | What value of measured IC50 is listed for C[C@H](c1cccc2ccccc12)N1CCC(N(CC(=O)NCC(=O)NC/C=C/S(C)(=O)=O)S(C)(=O)=O)CC1 ?
Reply | 100 to 1000 nM

* * *

- Tested target: SARS-CoV-2 PLpro (Severe acute respiratory syndrome coronavirus 2 (2019-nCoV) (SARS-CoV-2))
- Assay notes: PLpro enzymatic inhibition assay (IC50 value determination)
- Condition parameters: 60 min preincubation for covalent inhibitors, 10 min for non-covalent, read-out: Inhibition of SARS-CoV-2 PLpro IC50 range
pIC50: −log10 of the molar value.
Metric name: pIC50

As a guide, the following entries are already answered.
* C#CCNC(=S)CNC(=O)CN(C1CCN(C(C)c2cccc3ccccc23)CC1)S(C)(=O)=O (stereo not drawn) | > 7.00
* COC(=O)/C=C/CNC(=O)CNC(=O)CN(C(=O)C1CCC1)C1CCN(C(C)c2cccc3ccccc23)CC1 (stereo not drawn) | > 7.00
* COC(=O)/C=C/CNC(=O)CNC(=O)CN(C1CCN([C@H](C)c2cccc3ccccc23)CC1)S(C)(=O)=O | > 7.00
* C#Cc1nnc(NC(=O)CN(C2CCN(C(C)c3cccc4ccccc34)CC2)S(C)(=O)=O)o1 (stereo not drawn) | 5.00 to 6.00
* C#CCNC(=O)CNC(=O)CN(C1CCN(C(c2cccc3ccccc23)C(F)(F)F)CC1)S(C)(=O)=O (stereo not drawn) | 6.00 to 7.00
* C#CCNC(=O)CNC(=O)CN(C1CCN([C@H](C)c2cccc3ccccc23)CC1)S(=O)(=O)c1ccccc1 | > 7.00
* [2H]C([2H])(C#C)NC(=O)CNC(=O)CN(C1CCN(C(C)c2cccc3ccccc23)CC1)S(C)(=O)=O (stereo not drawn) | > 7.00
* CC(c1cccc2ccccc12)N1CCC(N(CC(=O)NCC(=O)NC/C=C/C(N)=O)C(=O)C2CCC2)CC1 (stereo not drawn) | 6.00 to 7.00
* COC(=O)/C=C/CNC(=O)CNC(=O)CN(C(C)=O)C1CCN(C(C)c2cccc3ccccc23)CC1 (stereo not drawn) | > 7.00
* C#CCNC(=O)CNC(=O)CN(C1CCN([C@@H](C)c2cccc3ccccc23)CC1)S(=O)(=O)N1CCCC1 | > 7.00

Ask | What value of measured pIC50 is listed for C#CCNC(=O)CNC(=O)CN(C1CCN(C2(c3cccc4ccccc34)CC2)CC1)S(C)(=O)=O ?
Reply | 5.00 to 6.00

Ask | How about COC(CNC(=O)CNC(=O)CN(C1CCN(C(C)c2cccc3ccccc23)CC1)S(C)(=O)=O)OC (stereo not drawn) ?
Reply | 5.00 to 6.00

Ask | How about COC(=O)/C=C/CNC(=O)CNC(=O)CN(C(=O)C1CCCCC1)C1CCN([C@H](C)c2cccc3ccccc23)CC1 ?
Reply | 6.00 to 7.00

Ask | How about CC(c1cccc2ccccc12)N1CCC(N(CC(=O)NCC(=O)NCC#N)S(C)(=O)=O)CC1 (stereo not drawn) ?
Reply | 5.00 to 6.00

Ask | How about COC(=O)/C=C/CNC(=O)CNC(=O)[C@H](CNC(=O)OC(C)(C)C)NC1CCN([C@H](C)c2cccc3ccccc23)CC1 ?
Reply | 5.00 to 6.00

* * *

- Tested target: SARS-CoV-2 PLpro (Severe acute respiratory syndrome coronavirus 2 (2019-nCoV) (SARS-CoV-2), UniProt P0DTD1)
- Assay notes: PLpro enzymatic inhibition assay (IC50 value determination)
- Format: biochemical
- Condition parameters: 60 min preincubation for covalent inhibitors, 10 min for non-covalent, read-out: Inhibition of SARS-CoV-2 PLpro IC50 range
pIC50: −log10 of the molar value.
Metric name: pIC50

- [2H]C([2H])([2H])C(c1cccc2ccccc12)N1CCC(N(CC(=O)NCC(=O)NCC#C)S(C)(=O)=O)CC1 (stereo not shown): > 7.00

Ask | What value of measured pIC50 is listed for C#CCNC(=O)CNC(=O)CN(C1CCN([C@@H](C)c2cccc3ccccc23)CC1)S(=O)(=O)C1CC1 ?
Reply | > 7.00

Ask | How about C#CCNC(=O)CNC(=O)CN(C1CCN(C(CO)c2cccc3ccccc23)CC1)S(C)(=O)=O (stereo not shown) ?
Reply | 5.00 to 6.00

Ask | How about CC(c1cccc2ccccc12)N1CCC(N(CC(=O)NCC(=O)NC/C=C/C(N)=O)S(C)(=O)=O)CC1 (stereo not shown) ?
Reply | 6.00 to 7.00

Ask | How about C#CCNC(=O)CCNC(=O)CN(C1CCN([C@H](C)c2cccc3ccccc23)CC1)S(C)(=O)=O ?
Reply | 6.00 to 7.00

Ask | How about C#CCNC(=O)CNC(=O)CN(C1CCN([C@H](C)c2cccc3ccccc23)CC1F)S(C)(=O)=O (stereo partly shown) ?
Reply | 6.00 to 7.00

Ask | How about C#CCNC(=O)CNC(=O)CN(C1CCN([C@H](C)c2cccc3ccccc23)CC1)S(=O)(=O)N1CCC(C(N)=O)C1 (stereo partly shown) ?
Reply | > 7.00

* * *

Each entry below carries its recorded IC50.
- Tested target: SARS-CoV-2 PLpro (Severe acute respiratory syndrome coronavirus 2 (2019-nCoV) (SARS-CoV-2), UniProt P0DTD1)
- Assay notes: PLpro enzymatic inhibition assay (IC50 value determination)
- Condition parameters: 60 min preincubation for covalent inhibitors, 10 min for non-covalent, read-out: Inhibition of SARS-CoV-2 PLpro IC50 range

As a guide, the following entries are already answered.
* C#CCNC(=O)CNC(=O)CN(C1CCN(C(C)c2nccc3ccccc23)CC1)S(C)(=O)=O (stereo not shown) [Compound 111] | 100 to 1000 nM
* C#CCNC(=O)CNC(=O)CN(C1CCN([C@H](C)c2cccc3ccccc23)CC1)S(=O)(=O)N1CCCC1 [Compound 65] | < 100 nM

We now examine a further molecule.
Ask | What value of measured IC50 is listed for COC(=O)/C=C/CNC(=O)c1nnc(CNC(=O)CN(C2CCN(C(C)c3cccc4ccccc34)CC2)S(C)(=O)=O)o1 (stereo not shown) [Compound 136] ?
Reply | 100 to 1000 nM

* * *

Each entry below carries its recorded pIC50.
- Tested target: SARS-CoV-2 PLpro (Severe acute respiratory syndrome coronavirus 2 (2019-nCoV) (SARS-CoV-2), UniProt P0DTD1)
- Assay notes: PLpro enzymatic inhibition assay (IC50 value determination)
- Condition parameters: 60 min preincubation for covalent inhibitors, 10 min for non-covalent, read-out: Inhibition of SARS-CoV-2 PLpro IC50 range
pIC50: −log10 of the molar value.

As a guide, the following entries are already answered.
• C#CCNC(=O)CNC(=O)CN(C1CCN(C(C)c2ccc(OC)c3ccccc23)CC1)S(C)(=O)=O (stereo not shown) [Compound 96] = > 7.00
• COC(=O)/C=C/CNC(=O)CNC(=O)CN(C(=O)Cc1ccc2c(c1)OCO2)C1CCN(C(C)c2cccc3ccccc23)CC1 (stereo not shown) [Compound 1] = 6.00 to 7.00
• COC(=O)/C=C/CNC(=O)CNC(=O)CN(C(=O)C1CC1)C1CCN([C@H](C)c2cccc3ccccc23)CC1 [Compound 5] = > 7.00

We now examine a further compound.
Ask | What value of measured pIC50 is listed for C#CCNC(=O)CNC(=O)CN(C1CCN(C(C)c2cccc3ccccc23)CC1)S(=O)(=O)CCC(=O)OC (stereo not shown) [Compound 131] ?
Reply | > 7.00

* * *

- Tested target: SARS-CoV-2 PLpro (Severe acute respiratory syndrome coronavirus 2 (2019-nCoV) (SARS-CoV-2), UniProt P0DTD1)
- Assay notes: PLpro enzymatic inhibition assay (IC50 value determination)
- Condition parameters: 60 min preincubation for covalent inhibitors, 10 min for non-covalent, read-out: Inhibition of SARS-CoV-2 PLpro IC50 range
Metric name: IC50

As a guide, the following entries are already answered.
* COC(=O)/C=C/CNC(=O)CNC(=O)CN(C(=O)Cc1cccc(F)c1)C1CCN([C@H](C)c2cccc3ccccc23)CC1 | 100 to 1000 nM
* C#CCNC(=O)CNC(=O)CN(C1CCN(C(C)c2c(Cl)cccc2Cl)CC1)S(C)(=O)=O (stereo not shown) | 100 to 1000 nM
* C#CCNC(=O)CNC(=O)CN(C1CCN(C(C)c2cc(Cl)ccc2Cl)CC1)S(C)(=O)=O (stereo not shown) | 100 to 1000 nM

Ask | What value of measured IC50 is listed for C#CCNC(=O)CNC(=O)CN(C1CCN(C(CC)c2cccc3ccccc23)CC1)S(C)(=O)=O (stereo not shown) ?
Reply | 100 to 1000 nM

Ask | How about COC(=O)/C=C/CNC(=O)CNC(=O)CN(C1CCN([C@H](C)c2cccc3ccccc23)CC1)S(N)(=O)=O ?
Reply | < 100 nM

Ask | How about C#CC(C)NC(=O)CNC(=O)CN(C1CCN([C@H](C)c2cccc3ccccc23)CC1)S(C)(=O)=O (stereo partly shown) ?
Reply | 1000 to 10000 nM

Ask | How about C#CCNC(=O)CNC(=O)CN(C1CCN(C(C)c2cccc(C)c2Cl)CC1)S(C)(=O)=O (stereo not shown) ?
Reply | 100 to 1000 nM
